Numbers sourced from PubChem BioAssay AID1919015.

# Tested on: OVCAR-5 complex spheroids with HUVEC/MSC, viability, % test/control
# protocol summary: Anticancer human tumor OVCAR-5 cell line growth inhibition [AhR];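 further: spheroids exposed to compounds for 7 days; 100% = DMSO vehicle control wells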
# condition description: second compound 3.16 µM; first compound 0.0316 µM; active compounds read low
# From the text: Multicellular complex tumor spheroid response to aryl hydrocarbon receptor antagonists in combination with a variety of drugs and investigational agents in selected tumor cell lines […] Compounds. […] If the clinical Cmax for an agent had not been determined, the highest concentration tested was 10 microM (Table 1). […]
Parameter viability, T/C: see the listing below.
Report the value in % with no unit label.

Task: Which viability, T/C is reported for this molecule? Nc1ncn(C2CC(O)C(CO)O2)c(=O)n1 (stereo unspecified) + CC(CO)NC(=O)c1cc(-c2ccc(Cl)cc2)nn(-c2cnn(C)c2)c1=O
Output: 97.9

Task: What does the record list as viability, T/C for O=C(C=Cc1cccc(S(=O)(=O)Nc2ccccc2)c1)NO + Cc1ccccc1N=Nc1ccc(NC(=O)c2ccnn2C)c(C)c1 ?
Output: 103

Task: If you can, please state the reported viability, T/C value of CC[C@@]1(O)C(=O)OCc2c1cc1n(c2=O)Cc2cc3c(CN(C)C)c(O)ccc3nc2-1 + Cc1cncc(-c2nc(NCCc3c[nH]c4ccccc34)c3ncn(C(C)C)c3n2)c1 .
Output: 43.4

Task: Tell me the measured viability, T/C of Nc1ncn(C2CC(O)C(CO)O2)c(=O)n1 (stereo unspecified) + Cc1cncc(-c2nc(NCCc3c[nH]c4ccccc34)c3ncn(C(C)C)c3n2)c1 , please.
Output: 70.4

Task: Fill in: viability, T/C of COc1cccc2c1C(=O)c1c(O)c3c(c(O)c1C2=O)CC(O)(C(=O)CO)CC3OC1CC(N)C(O)C(C)O1 (stereo unspecified) + CC(CO)NC(=O)c1cc(-c2ccc(Cl)cc2)nn(-c2cnn(C)c2)c1=O is ___
Output: 77

Task: Look up viability, T/C for this molecule: COc1cc(C2c3cc4c(cc3C(OC3OC5COC(C)OC5C(O)C3O)C3COC(=O)C23)OCO4)cc(OC)c1O (stereo unspecified) + Cc1cncc(-c2nc(NCCc3c[nH]c4ccccc34)c3ncn(C(C)C)c3n2)c1
Output: 79.8

Task: viability, T/C for O=C(C=Cc1cccc(S(=O)(=O)Nc2ccccc2)c1)NO + CC(CO)NC(=O)c1cc(-c2ccc(Cl)cc2)nn(-c2cnn(C)c2)c1=O ?
Output: 103
